assay: gradient 5% acetonitrile 3 min, to 50% in 2 min, to 85% in 15 min, held 3 min, 100 µL/min; details: column: Zorbax Extend-C18 2.1 x 50 mm; eluents: water / acetonitrile, 0.1% formic acid
Property label: RP-LC retention time (s)

Here is how some molecules turned out for RP-LC retention time.
Molecule	Result value
Cc1ccc(F)c(NS(=O)(=O)c2cc(-c3[nH]ncc3C(=O)N3CCOCC3)oc2C)c1	678
COC(=O)c1ccc(NC(=O)N2CC(N(C3CCOCC3)S(C)(=O)=O)C2)cc1	686
CCOc1ccccc1NC(=O)Cn1nc2c(Oc3ccccc3C)nccn2c1=O	935
Oc1ccc([C@@H]2Oc3ccc(O)cc3[C@@H]3CCC[C@@H]32)cc1	866
Cc1ccc(NC(=O)C2CC(=O)N(c3n[nH]c4cccc(F)c34)C2)c(C)c1 (centres undefined)	770

1: c1ccc(-c2nc3cc(-c4noc(-c5ccco5)n4)ccc3o2)cc1
2: Cc1nn(C)c(C)c1CCNC(=O)Nc1cccc(Br)c1
Request: Sort 1 and 2 by RP-LC retention time descending and give the first. Reply with the label of the item you choose.
Result: 1

----------
assay: gradient 5% acetonitrile 3 min, to 50% in 2 min, to 85% in 15 min, held 3 min, 100 µL/min; settings: column: Zorbax Extend-C18 2.1 x 50 mm; eluents: water / acetonitrile, 0.1% formic acid
Property label: RP-LC retention time (s)

Molecule	Result value
Cc1ccc(C2Cn3cnc(C(=O)N4CCC(C(=O)NCc5ccc(F)cc5F)CC4)c3CO2)cc1 (stereo unspecified)	830
O=C(CSc1ncccn1)Nc1nc(-c2ccccc2)cs1	837
Cc1nn(C(C)C(=O)NCCCN2CCCCCC2)c(=O)c2c1sc1ccccc12 (stereo unspecified)	702
CCCN1C(=O)CCc2c(C)ncnc21	611
CCCn1cc(-c2ccncc2)cc1C(=O)NC1CC1	579
CC1CCN(Cc2nnc(-c3ccccc3)o2)CC1	601
CC(C)c1ccc(N2C(=O)CN(S(C)(=O)=O)CC2(C)C(=O)NCc2ccc(F)cc2)cc1 (stereo unspecified)	836
CCc1noc(C2(NC(=O)c3nn(C)c4ccccc34)CCCCC2)n1	1010

1: COc1ccc(Cl)cc1C(=O)NCc1c(C)nc2sc(C)nn12
2: COc1ccc(-c2noc(C3CC(=O)N(c4ccc(C)c(Cl)c4)C3)n2)cc1 (stereo unspecified)
Request: Sort 1 and 2 by RP-LC retention time descending and give the first. Reply with the label of the item you choose.
Result: 2

----------
assay: gradient 5% acetonitrile 3 min, to 50% in 2 min, to 85% in 15 min, held 3 min, 100 µL/min; details: column: Zorbax Extend-C18 2.1 x 50 mm; eluents: water / acetonitrile, 0.1% formic acid
Property label: RP-LC retention time (s)

Here is how some molecules turned out for RP-LC retention time.
Molecule	Unit name	RP-LC retention time
CCCCCn1c(=O)c2c(nc3n2CCCCN3c2ccc(OCC)cc2)n(C)c1=O	s	1190
Cc1nnc(-c2ccc3ccn(CC(=O)Nc4ccc(Cl)cc4F)c3c2)o1	s	887
Cc1cc(C)n(-c2ccnc(N3CCC(C(=O)NCCN4CCCC4)CC3)n2)n1	s	587
COCCCNC(=O)C1c2ccccc2C(=O)N1CCc1ccc(C)cc1 (stereo not drawn)	s	787

P: CCOc1ccccc1NC(=O)N1CCCC(C)(C(=O)NCc2ccccc2C)C1 (stereo not drawn)
Q: CC(C)CCNS(=O)(=O)c1ccccc1-c1nc(-c2ccccc2)no1
R: O=C(Cn1cnc2ccccc21)Nc1nc2c(s1)C(=O)CCC2
Request: Sequence the entries by RP-LC retention time, beginning with the highest number. Would you mind listing the labels in the order asked for?
Result: Q, P, R
(Q: 1240 s, P: 860 s, R: 558 s)
